System: Phospho-Rb Ser807/811 in OVCAR3 cells
Assay: OVCAR3 Phospho-Rb Ser807/811 HTRF assay
Type: cell-based
Details: Homo sapiens, OVCAR-3, 1 h, OVCAR3 cells, Phospho-Rb Ser807/811 HTRF, 1 hour incubation; read-out: pRb-OVCAR3 IC50
Provide the reported IC50 of each item.
All answers are understood in nM, so give the number only.

Value of measured IC50 for the entry COCC(C)(C)NC(=O)O[C@@H]1CC[C@H](c2cc(NC(=O)COc3cc(OC)cc(O)c3C=O)n[nH]2)C1 : 57.4

Value of measured IC50 for the entry COc1cc(O)c(C=O)c(OCC(=O)Nc2cc([C@H]3CC[C@@H](OC(=O)NCCC(F)(F)F)C3)[nH]n2)c1 : 16.9

Value of measured IC50 for the entry COc1cc(O)c(C=O)c(OCc2cc(C(=O)Nc3cc([C@H]4CC[C@@H](OC(=O)NC(C)C)C4)[nH]n3)n(C)n2)c1 : 46.5

Value of measured IC50 for the entry COc1cc(O)c(C=O)c(OCC(=O)Nc2cc([C@H]3CC[C@@H](OC(=O)N4CCOCC4)C3)[nH]n2)c1 : 57.8

Value of measured IC50 for the entry Cc1nc(-c2cccc(O)c2C=O)sc1C(=O)Nc1cc([C@H]2CC[C@@H](OC(=O)NC(C)C)C2)[nH]n1 : 361

Value of measured IC50 for the entry COc1cc(O)c(C=O)c(OCC(=O)Nc2cc([C@H]3CC[C@@H](OC(=O)N4C5CCCC4C5)C3)[nH]n2)c1 : 32.1

Value of measured IC50 for the entry COc1cc(O)c(C=O)c(OCC(=O)Nc2cc([C@H]3CC[C@@H](OC(=O)N[C@H](C)CC(F)F)C3)[nH]n2)c1 : 26.4

Value of measured IC50 for the entry CC(C)NC(=O)O[C@@H]1CC[C@H](c2cc(NC(=O)c3cc(-c4cccc(O)c4C=O)n(C)n3)n[nH]2)C1 : 2300

Value of measured IC50 for the entry CCCNC(=O)O[C@H]1C[C@@H](c2cc(NC(=O)COc3cc(OC)cc(O)c3C=O)n[nH]2)C1 : 66.1

Value of measured IC50 for the entry CC(C)NC(=O)O[C@@H]1CC[C@H](c2cc(NC(=O)COc3cc(C#N)cc(O)c3C=O)n[nH]2)C1 : 1170

Value of measured IC50 for the entry COc1cc(O)c(C=O)c2c1C[C@@H](C(=O)Nc1cc([C@H]3CC[C@@H](OC(=O)NC(C)C)C3)[nH]n1)C2 : 10.7

Value of measured IC50 for the entry COc1cc(O)c(C=O)c(OCC(=O)Nc2cc([C@H]3CC[C@@H](OC(=O)NN(C)C)C3)[nH]n2)c1 : 80.3

Value of measured IC50 for the entry CC(C)NC(=O)O[C@@H]1CC[C@H](c2cc(NC(=O)[C@H]3C[C@H](Oc4cccc(O)c4C=O)C3)n[nH]2)C1 (single isomer, unassigned) : 274

----------
Test: Solubility determination in PBS pH 7.4
Assay type: physicochemical
Details: aqueous buffer, kinetic from dmso stock; PBS pH 7.4, 2 hours, 25° C.; the listed prodrug
ENDPOINT_NAME: solubility at 2 h (µM)
All answers are understood in µM, so give the number only.

Value of measured solubility at 2 h for the entry Cc1cc(O)c(/C=N/C(C)C)c(OCC(=O)Nc2cc([C@H]3CC[C@@H](OC(=O)NC4(C)CC4)C3)[nH]n2)c1 [Compound 145a] : 68

Value of measured solubility at 2 h for the entry CC(C)/N=C/c1c(O)cccc1OCC(=O)Nc1cc([C@H]2CC[C@@H](OC(=O)NC3(C)CC3)C2)[nH]n1 [Compound 82a] : 34

Value of measured solubility at 2 h for the entry CCCNC(=O)O[C@@H]1CC[C@H](c2cc(NC(=O)COc3cc(OC)cc(O)c3/C=N/C(C)C)n[nH]2)C1 [Compound 221a] : 156

Value of measured solubility at 2 h for the entry COc1cc(O)c(/C=N/C(C)C)c(OCC(=O)Nc2cc([C@H]3C[C@@H](OC(=O)NC(C)C)C3)[nH]n2)c1 [Compound 223a] : 6.7

Value of measured solubility at 2 h for the entry CC/N=C/c1c(O)cc(OC)cc1OCC(=O)Nc1cc([C@H]2CC[C@@H](OC(=O)NC3(C)CC3)C2)[nH]n1 [Compound 251c] : 48

Value of measured solubility at 2 h for the entry COc1cc(O)c(/C=N/C(C)C)c(OCC(=O)Nc2cc([C@H]3CC[C@@H](OC(=O)N(C)N(C)C)C3)[nH]n2)c1 [Compound 172a] : 227

Value of measured solubility at 2 h for the entry COc1cc(O)c(/C=N/C(C)C)c(OCC(=O)Nc2cc([C@H]3CC[C@@H](OC(=O)NC(C)(C)C)C3)[nH]n2)c1 [Compound 128a] : 191

Value of measured solubility at 2 h for the entry CCC/N=C/c1c(O)cc(OC)cc1OCC(=O)Nc1cc([C@H]2CC[C@@H](OC(=O)NC(C)C)C2)[nH]n1 [Compound 64b] : 79

----------
Provide the reported pIC50 of each item.
Biological target: CDK2-NanoLuc fusion with CCNE1 in 293T or 293 cells (Homo sapiens, UniProt P24941)
Construct: host or cells: 293T (ATCC CRL-3216) or 293 (ATCC CRL-1573)
Test: NanoBRET Target Engagement (TE) Intracellular Kinase Assay, CDK2/CCNE1
Type: cell-based
Conditions: NanoBRET TE intracellular kinase assay, 2-hour incubation, read-out: NanoBRET-CDK2/E1 IC50
Scale: pIC50 equals -log10([C]), with [C] in mol/L.

Value of measured pIC50 for the entry CC(C)NC(=O)O[C@@H]1CC[C@H](c2cc(NC(=O)[C@@H]3Cc4ccc(O)c(C=O)c4C3)n[nH]2)C1 [Compound 26] : 8.56

Value of measured pIC50 for the entry COc1cc(O)c(C=O)c(OCC(=O)Nc2cc([C@H]3CC[C@@H](OC(=O)N4CC(N(C)C)C4)C3)[nH]n2)c1 [Compound 187] : 7.74

Value of measured pIC50 for the entry COc1cc(O)c(C=O)c(OCC(=O)Nc2cc([C@H]3CC[C@@H](OC(=O)N4C5CC4CN(C)C5)C3)[nH]n2)c1 [Compound 190] : 8.10

Value of measured pIC50 for the entry CC(C)NC(=O)O[C@@H]1CC[C@H](c2cc(NC(=O)c3cc(-c4cccc(O)c4C=O)nn3C)n[nH]2)C1 [Compound 17, 2,2,2-trifluoroacetate] : 8.31

Value of measured pIC50 for the entry COCC(C)(C)NC(=O)O[C@@H]1CC[C@H](c2cc(NC(=O)COc3cc(OC)cc(O)c3C=O)n[nH]2)C1 [Compound 176] : 8.38

Value of measured pIC50 for the entry COc1cc(O)c(C=O)c2c1CC(C(=O)Nc1cc([C@H]3C[C@@H](OC(=O)NC(C)C)C3)[nH]n1)C2 (single isomer, unassigned) [Compound 282] : 8.28

Value of measured pIC50 for the entry COc1cc(O)c(C=O)c(OCC(=O)Nc2cc([C@H]3CC[C@@H](OC(=O)N4CCC[C@@H]4C)C3)[nH]n2)c1 [Compound 245] : 8.51

Value of measured pIC50 for the entry CC(=O)Nc1cccc(OCC(=O)Nc2cc([C@H]3CC[C@@H](OC(=O)NC(C)C)C3)[nH]n2)c1C=O [Compound 46] : 7.69

Value of measured pIC50 for the entry CCCNC(=O)O[C@H]1C[C@@H](c2cc(NC(=O)COc3cc(OC)cc(O)c3C=O)n[nH]2)C1 [Compound 182] : 8.20

Value of measured pIC50 for the entry CCOc1cc(O)c(C=O)c(OCC(=O)Nc2cc([C@H]3CC[C@@H](OC(=O)N4CCC4(C)C)C3)[nH]n2)c1 [Compound 211] : 8.57

Value of measured pIC50 for the entry COCCOCCNC(=O)O[C@@H]1CC[C@H](c2cc(NC(=O)COc3cc(OC)cc(O)c3C=O)n[nH]2)C1 [Compound 210] : 8.16

Value of measured pIC50 for the entry COc1cc(O)c(C=O)c(O[C@H](C)C(=O)Nc2cc([C@H]3C[C@@H](OC(=O)N4C5COCC4C5)C3)[nH]n2)c1 [Compound 193] : 7.94

----------
Biological target: CDK2-NanoLuc fusion with CCNE1 in 293T or 293 cells (Homo sapiens)
Construct: host or cells: 293T (ATCC CRL-3216) or 293 (ATCC CRL-1573)
Assay: NanoBRET Target Engagement (TE) Intracellular Kinase Assay, CDK2/CCNE1
Format: cell-based
Conditions: NanoBRET TE intracellular kinase assay, 2-hour incubation, read-out: NanoBRET-CDK2/E1 IC50
ENDPOINT_NAME: pIC50
Scale: pIC50 equals -log10([C]), with [C] in mol/L.

I looked up COc1cc(O)c(C=O)c(OCC(=O)Nc2cc([C@H]3CC[C@@H](OC(=O)N4NC5CCC4C5)C3)[nH]n2)c1 (stereo partly shown) and its pIC50 for CDK2-NanoLuc fusion with CCNE1 in 293T or 293 cells (Homo sapiens) was 8.62

I looked up COc1cc(O)c(C=O)c(OCC(=O)Nc2cc([C@H]3CC[C@@H](OC(=O)N4CC[C@H](C)C4)C3)[nH]n2)c1 and its pIC50 for CDK2-NanoLuc fusion with CCNE1 in 293T or 293 cells (Homo sapiens) was 8.79

I looked up COc1cc(O)c(C=O)c(OCC(=O)Nc2cc([C@H]3CC[C@@H](OC(=O)N4[C@@H]5CC[C@H]4C[C@H](C#N)C5)C3)[nH]n2)c1 and its pIC50 for CDK2-NanoLuc fusion with CCNE1 in 293T or 293 cells (Homo sapiens) was 8.11

I looked up COc1cc(O)c(C=O)c(OCC(=O)Nc2cc([C@H]3CC[C@@H](OC(=O)N4CCN(C)CC4)C3)[nH]n2)c1 and its pIC50 for CDK2-NanoLuc fusion with CCNE1 in 293T or 293 cells (Homo sapiens) was 8.03

I looked up O=Cc1c(O)cccc1OCC(=O)Nc1cc([C@H]2CC[C@@H](OC(=O)NC3CCC3)C2)[nH]n1 and its pIC50 for CDK2-NanoLuc fusion with CCNE1 in 293T or 293 cells (Homo sapiens) was 8.56

I looked up CC(C)NC(=O)O[C@@H]1CC[C@H](c2cc(NC(=O)c3cc(-c4ccc(O)c(C=O)c4)nn3C)n[nH]2)C1 and its pIC50 for CDK2-NanoLuc fusion with CCNE1 in 293T or 293 cells (Homo sapiens) was 8.26

I looked up CC(C)NC(=O)O[C@@H]1CC[C@H](c2cc(NC(=O)COc3ccc(F)c(O)c3C=O)n[nH]2)C1 and its pIC50 for CDK2-NanoLuc fusion with CCNE1 in 293T or 293 cells (Homo sapiens) was 7.57

I looked up COc1cc(O)c(C=O)c(OCC(=O)Nc2cc([C@H]3CC[C@@H](OC(=O)N(C)CC(F)F)C3)[nH]n2)c1 and its pIC50 for CDK2-NanoLuc fusion with CCNE1 in 293T or 293 cells (Homo sapiens) was 8.70

I looked up COc1cc(O)c(C=O)c(OCC(=O)Nc2cc([C@H]3CC[C@@H](OC(=O)N4CCC4(C)C)C3)[nH]n2)c1 and its pIC50 for CDK2-NanoLuc fusion with CCNE1 in 293T or 293 cells (Homo sapiens) was 8.72

I looked up COc1cc(O)c(C=O)c([C@@H]2C[C@H]2C(=O)Nc2cc([C@H]3CC[C@@H](OC(=O)NC(C)C)C3)[nH]n2)c1 (mixture of isomers) and its pIC50 for CDK2-NanoLuc fusion with CCNE1 in 293T or 293 cells (Homo sapiens) was 8.64

I looked up COc1cc(O)c(C=O)c(OCC(=O)Nc2cc([C@H]3CC[C@@H](OC(=O)N4CCOC[C@H]4C)C3)[nH]n2)c1 and its pIC50 for CDK2-NanoLuc fusion with CCNE1 in 293T or 293 cells (Homo sapiens) was 8.61

I looked up CC(C)NC(=O)O[C@@H]1CC[C@H](c2cc(NC(=O)c3cc(C#Cc4cccc(O)c4C=O)nn3C)n[nH]2)C1 and its pIC50 for CDK2-NanoLuc fusion with CCNE1 in 293T or 293 cells (Homo sapiens) was 7.73

I looked up COc1cc(O)c(C=O)c(OCC(=O)Nc2cc([C@@H]3CC[C@H](OC(=O)NC(C)C)C3)[nH]n2)c1 and its pIC50 for CDK2-NanoLuc fusion with CCNE1 in 293T or 293 cells (Homo sapiens) was 7.80
